Source: PubChem BioAssay AID248

Test system: L1210 leukemia ip in BDF1 mice, survival T/C
assay-method-text: NCI In Vivo Anticancer Drug Screen. Data for tumor model L1210 Leukemia (intraperitoneal) in B6D2F1 (BDF1) mice
condition-info: endpoint: mean survival time; dose: 100.0 mg/kg/injection; schedule: Q04DX002 (ip); vehicle: saline; higher = longer survival
Toxic doses and inconclusive results are not listed.
readout-type: T/C

CCOCCOCCOC(C)Oc1cc(OC)ccc1OC (centres undefined) ... 107 % of control

T/C for CC(C)[C@](O)(C(=O)OCC1=CC[N+]2([O-])CC[C@@H](O)[C@@H]12)[C@H](C)O (some centres undefined) is 104 % of control

T/C for `c1ccc2c[s+]ccc2c1` is 90 % of control

T/C for CC(O)C1OC1C(C)O (centres undefined) is 112 % of control

T/C for CC(=O)NC(CCC(N)=O)C(=O)O (centres undefined) is 99 % of control

T/C for `CCOC(=O)C(CBr)CBr` is 91 % of control

T/C for `CC1CCNCC1` is 105 % of control

T/C for CCCCc1cnc(NCCCC(N)C(=O)O)nc1 (centres undefined) is 92 % of control

T/C for CCS(=O)(=O)CC(C)O (centres undefined) is 101 % of control

====

System: L1210 leukemia ip in BDF1 mice, survival T/C
assay-method-text: NCI In Vivo Anticancer Drug Screen. Data for tumor model L1210 Leukemia (intraperitoneal) in B6D2F1 (BDF1) mice
condition-info: endpoint: mean survival time; dose: 100.0 mg/kg/injection; schedule: Q01DX001 (ip); vehicle: saline; higher = longer survival
Inconclusive results and toxic doses are left out.
readout-type: T/C

Below, 8 molecules whose answers are already recorded.
CCC(C)(C)N ... 91 % of control
ON=C1CCCCC1 ... 88 % of control
CCCCCCCCOC(=O)c1[nH]cnc1N ... 96 % of control
COC(=O)C1=NN(c2ccccc2)CC1 ... 98 % of control
CCN(C(=O)c1ccc2c3c(cccc13)C=C2)c1ccccc1 ... 104 % of control
O=C(O)c1cccnn1 ... 104 % of control
C/C(=C1/SC(=S)NC1=O)c1ccccc1 ... 102 % of control
NCCCCC(=O)NC(CCCCNC(=O)OCc1ccccc1)C(=O)NCCCCC(=O)NC(CCCCNC(=O)OCc1ccccc1)C(=O)NCCCCC(=O)NC(CCCCNC(=O)OCc1ccccc1)C(=O)NCCCCC(=O)NC(CCCCNC(=O)OCc1ccccc1)C(=O)NCCCCC(=O)NC(CCCCNC(=O)OCc1ccccc1)C(=O)NCCCCC(=O)NC(CCCCNC(=O)OCc1ccccc1)C(=O)NCCCCC(=O)NC(CCCCNC(=O)OCc1ccccc1)C(=O)O (stereo not given) ... 92 % of control

Entry `O=NN1CCC1` , tested on L1210 leukemia ip in BDF1 mice, survival T/C, has a reported T/C of 97 % of control

Entry COc1cccc(C(N)C(=O)O)c1 (stereo not given) , tested on L1210 leukemia ip in BDF1 mice, survival T/C, has a reported T/C of 100 % of control

====

System: L1210 leukemia ip in BDF1 mice, survival T/C
assay-method-text: NCI In Vivo Anticancer Drug Screen. Data for tumor model L1210 Leukemia (intraperitoneal) in B6D2F1 (BDF1) mice
condition-info: endpoint: mean survival time; dose: 100.0 mg/kg/injection; schedule: Q01DX009 (ip); vehicle: Klucel (hydroxypropylcellulose) (HPC); higher = longer survival
Procedure: The antitumor activity of compounds was measured in mice bearing transplantable tumors. Survival or tumor size were measured and the results are expressed as the measurement made in the treated group (T) divided by the measurement made in the vehicle treated control group (C). The tumor model used in this assay is L1210 Leukemia (intraperitoneal) in B6D2F1 (BDF1) mice
Inconclusive results and toxic doses are left out.
In this section, each of the compounds is paired with its reported T/C.

Below, 5 compounds whose answers are already recorded.
O=C(O)c1ccc2c([N+](=O)[O-])cccc2n1 ... 100 % of control
O=C(Oc1ccccc1)c1ccc(Cl)cc1 ... 98 % of control
O=C(Oc1cc(OC(=O)c2ccccc2)cc(OC(=O)c2ccccc2)c1)c1ccccc1 ... 95 % of control
COC(=O)C(Br)C(Br)N1C(=O)c2ccccc2C1=O (configuration not stated) ... 98 % of control
CN(Cc1ccccc1)C(=O)Nc1ccc(F)c([N+](=O)[O-])c1 ... 113 % of control

T/C for `COc1cc(Cc2cc(OC)c(O)c(OC)c2)cc(OC)c1O` is 107 % of control

T/C for CCOC(=O)C1C(C#N)C2OC1C(Cl)C2Cl (configuration not stated) is 100 % of control

T/C for `Cc1c(Cl)cccc1NC(=O)Nc1ccccc1F` is 91 % of control

T/C for `COc1ccc2c(O)coc2c1` is 100 % of control

T/C for COC(=O)NC1CC(O)C(CO)C1 (configuration not stated) is 97 % of control

T/C for `COc1ccc(NC(=O)Nc2cc([N+](=O)[O-])ccc2C)cc1[N+](=O)[O-]` is 98 % of control

T/C for `COc1cc(C2=C3C(=O)OC[C@@H]3Cc3cc4c(cc32)OCO4)cc(OC)c1OC` is 91 % of control
